# assay procedure: NCI Yeast Anticancer Drug Screen. Data for the bub3 strain (AID 167)
# reported conditions: S. cerevisiae bub3 mutant strain, at 50.0 µM, hits give high values
Compounds without any hit were thinned out: in the full panel of roughly 79,000, 15% have a hit.
Here, each record is paired with measured growth inhibition data.
A number alone suffices; assume %.

compound | measured endpoint | observed measurement
C=CCc1cc(OC)c2c(c1OC)OCO2 | growth inhibition | -1.9
Clc1cccc(Cl)c1C(Cl)Cl | growth inhibition | -6.65
O=P(O)(O)CCP(=O)(O)O | growth inhibition | -13.7
S=P1(c2ccccc2)C=C(N2CCCC2)CC1 (stereo unspecified) | growth inhibition | 11.7
CCC(=O)C(c1ccccc1)(c1ccccc1)C(C)CN(C)C (stereo unspecified) | growth inhibition | -4.9

Inquiry: Suppose we examine the compound Clc1ccc(C(Cl)(Cl)Cl)c(Cl)c1 ; what growth inhibition value has been reported?
Reply text: 17.9

Inquiry: Try the compound CCNCCc1ccc(N)cc1
Reply text: 1.85

Inquiry: Queued: C#[C][Sn]([CH2]CCC)([CH2]CCC)[CH2]CCC
Reply text: 99.3

Inquiry: Please do the same for Cc1ccc(Cl)c2c1CC(=[N+]=[N-])C2=O as well.
Reply text: 10.5

Inquiry: One more compound: O=Cc1ccccc1O.[La]
Reply text: -7.7

Inquiry: Further, for O=[N+]([O-])c1c(Cl)cc(Cl)c([N+](=O)[O-])c1Cl ?
Reply text: 2.85

Inquiry: // query: [I][Hg][CH]1CCC2CCCC1O2 (stereo unspecified)
Reply text: 98.8
